- system.under.test: interaction of human SOS1 (SOS1) with human K-RasG12C (Homo sapiens (Human))
- assay.remarks: Biochemical assay: hK-RasG12C interaction assay with hSOS1 (HTRF)
- conditions.used: GST-hK-RasG12C with His-hSOS1, 60 min incubation at 20° C., mean, read-out: K-RasG12C - SOS interaction assay IC50 (mean)
pIC50: −log10 of the molar value.

| molecule | pIC50 |
| --- | --- |
| Cc1nc(N[C@H](C)c2cccc(C(F)(F)C(C)(C)O)c2F)c2cc(P3(=O)CCN(Cc4ccccc4)CC3)ncc2n1 [Example 54] | 7.65 |
| Cc1nc(N[C@H](C)c2cccc(C(F)F)c2F)c2cc(P(=O)(C(C)C)C(C)C)ncc2n1 [Example 108] | 6.82 |
| CC(=O)NCC(F)(F)c1cccc([C@@H](C)Nc2nc(C)nc3cnc(P4(=O)CCN(C(C)=O)CC4)cc23)c1F [Example 199] | 8.34 |
| CCP(C)(=O)c1cc2c(N[C@H](C)c3cccc(C(F)(F)C(C)(C)O)c3F)nc(C)nc2cn1 (single isomer, unassigned) [Example 69] | 7.71 |

----------
- system.under.test: interaction of human SOS1 (SOS1) with human K-RasG12C (Homo sapiens (Human), UniProt Q07889)
- Sequence (Q07889 564-1049 limits assumed): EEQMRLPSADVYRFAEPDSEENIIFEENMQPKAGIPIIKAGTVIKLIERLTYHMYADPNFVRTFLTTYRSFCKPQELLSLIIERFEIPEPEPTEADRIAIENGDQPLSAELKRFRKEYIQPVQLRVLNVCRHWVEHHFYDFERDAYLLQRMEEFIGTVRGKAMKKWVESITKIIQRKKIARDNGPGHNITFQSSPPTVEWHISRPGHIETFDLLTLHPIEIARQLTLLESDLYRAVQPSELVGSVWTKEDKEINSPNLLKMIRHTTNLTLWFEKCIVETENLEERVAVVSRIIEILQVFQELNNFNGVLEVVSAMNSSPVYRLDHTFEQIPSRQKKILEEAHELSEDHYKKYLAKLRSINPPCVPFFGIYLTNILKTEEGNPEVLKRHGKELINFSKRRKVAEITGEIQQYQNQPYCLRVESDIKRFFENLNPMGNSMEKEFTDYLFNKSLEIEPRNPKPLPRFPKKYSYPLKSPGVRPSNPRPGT
- assay.remarks: Biochemical assay: hK-RasG12C interaction assay with hSOS1 (HTRF)
- conditions.used: GST-hK-RasG12C with His-hSOS1, 60 min incubation at 20° C., mean, read-out: K-RasG12C - SOS interaction assay IC50 (mean)

| molecule | IC50, nM |
| --- | --- |
| Cc1nc(N[C@H](C)c2cccc(C(F)(F)F)c2C)c2cc(P3(=O)CCN(C(=O)OC(C)(C)C)CC3)nc(C)c2n1 | 286 |
| Cc1nc(N[C@H](C)c2cccc(C(F)F)c2F)c2cc(P(C)(=O)C(C)C)ncc2n1 (single isomer, unassigned) [Example 116] | 57.6 |
| Cc1nc(N[C@H](C)c2cccc(C(F)(F)F)c2C)c2cc(P3(=O)CCN(C(N)=O)CC3)ncc2n1 | 4.71 |
| Cc1nc(N[C@H](C)c2cccc(C(F)(F)C(C)(C)O)c2F)c2cc(P3(=O)CC=CC3)ncc2n1 | 12 |
| CCP(C)(=O)c1cc2c(N[C@H](C)c3cccc(C(F)(F)C(C)O)c3F)nc(C)nc2cn1 (single isomer, unassigned) [Example 75] | 15.3 |
| Cc1nc(N[C@H](C)c2cccc(C(F)F)c2F)c2cc(P3(=O)CCNCC3)ncc2n1 | 22.3 |
| Cc1nc(N[C@H](C)c2cccc(C(F)F)c2F)c2cc(P3(=O)CCCC3)ccc2n1 | 23.4 |
| COCC(F)(F)c1cccc([C@@H](C)Nc2nc(C)nc3cnc(P(C)(C)=O)cc23)c1F | 46.5 |
| CCP(=O)(CC)c1cc2c(N[C@H](C)c3cccc(C(F)F)c3F)nc(C)nc2cn1 | 77.2 |
| CC(=O)NCC(F)(F)c1cccc([C@@H](C)Nc2nc(C)nc3cnc(P4(=O)CCN(C(=O)C5CC5)CC4)cc23)c1F | 4.6 |
| Cc1nc(N[C@H](C)c2cccc(C(F)(F)C(C)(C)O)c2F)c2cc(P3(=O)CCCC3)ncc2n1 | 12.8 |
| Cc1nc(N[C@H](C)c2cccc(C(F)(F)C(C)O)c2F)c2cc(P(C)(C)=O)ncc2n1 (stereo in doubt) | 36.6 |
| Cc1nc(N[C@H](C)c2cccc(C(F)(F)C(C)(C)O)c2F)c2cc(P(C)(C)=O)cnc2n1 | 9.78 |
| Cc1nc(N[C@H](C)c2cccc(C(F)(F)C(O)C(C)C)c2F)c2cc(P(C)(C)=O)ncc2n1 (single isomer, unassigned) [Example 87] | 2.86 |
